Tested on: Plasmodium berghei
Test: Screen against P. berghei liver stage (PbLuc), transformed with Luciferase, at 10uM
Type: functional, HepG2
Settings: tested at 10 uM
Screen size: about 69,000 compounds; about 8,600 (12%) showed an effect of 50% or more. This excerpt belongs to a sample that is enriched for strong results.
readout-name: INHIBITION (%)
Express your answer in %, writing the number without its unit.

Reference set (5 entries):
Q) Input Cc1cccc(CN2CCN(Cc3ccccc3)CC(O)C2)n1 (stereo unspecified) , output reported INHIBITION.
A) 16.8

Q) Consider the compound O=S(=O)(NCc1cn2ccccc2n1)N1CCOCC1 and give its recorded INHIBITION.
A) -38.6

Q) Please supply the value of reported INHIBITION for the item Cc1nc(CN2CCC(c3nc4ccccc4n3C)CC2)co1
A) 42.3

Q) Specify reported INHIBITION for the compound shown: CC(C)=CCN1CCN(Cc2cccc(C)n2)CC1CCO (stereo unspecified)
A) 67.4

Q) Using the record for CC(C)=CCN1CCN(Cc2cc(C)c(O)c(C)c2)CC1CCO (stereo unspecified) , state its measured INHIBITION.
A) 51.3

Continuing:
Q) Give the reported value of INHIBITION for this record: Cn1ccnc1CN1CCC(c2nc3ccccc3n2C)CC1
A) 39.3

---

Tested on: Plasmodium berghei
Assay: Screen against P. berghei liver stage (PbLuc), transformed with Luciferase, at 10uM
Type: functional, HepG2
Settings: tested at 10 uM
In all, about 69,000 compounds went through this assay and about 8,600 (12%) showed an effect of 50% or more. The entries come from a sample that favours strong results as a whole.
readout-name: INHIBITION (%)
The reply should contain only the number, in %.

Reference set, count: 5
Q) Read off the recorded INHIBITION for CNC(=O)[C@H]1C[C@@H]2CN(C(=O)c3ccccn3)C[C@@H]2N1S(C)(=O)=O
A) 37.2

Q) Assign INHIBITION to the following record: Cn1cc(CN2CCC3(CC2)CN(C(=O)c2cnccn2)CCO3)cn1
A) -13.2

Q) Tell me INHIBITION reported for O=C(NCc1nc(C2CC2)no1)N1CCOC(c2ccccc2F)C1 (stereo unspecified)
A) 35

Q) Supply measured INHIBITION of CC(=O)NCCc1ccc(S(=O)(=O)Nc2ccc(C)cc2F)s1 in your reply.
A) -44.2

Q) Note down INHIBITION recorded for COc1cccc(OCC(=O)N(C)c2cccnc2N(C)C)c1
A) 33.1

With those in mind, consider the next compound.
Q) Please report INHIBITION for the following compound: Cc1cc(NCCN2CCNC2=O)nc2cc3c(cc12)CCC3
A) 59.5

---

System: Plasmodium berghei
Experiment: Screen against P. berghei liver stage (PbLuc), transformed with Luciferase, at 10uM
Format: functional, HepG2
Details: tested at 10 uM
Screen size: about 69,000 compounds; about 8,600 (12%) showed an effect of 50% or more. Shown is part of a subset that was picked to be rich in strong results.
Each record is given y if its reported INHIBITION is strictly below 40%. Records at or above 40% are given n.

Use the examples below as a reference point.
Q) Please check: INHIBITION for CN(Cc1noc(C2CC2)n1)C1CCN(Cc2ncc[nH]2)C1 (stereo not given) , strictly under 40% or not?
A) y

Q) Consider COc1ncc(CN(CCN(C)C)Cc2ccc(C)s2)cn1 . Does its INHIBITION lie strictly below 40%?
A) n

Q) Strictly below 40%: is that where INHIBITION of COc1ccc(C(=O)Nc2ccc3c(c2)C(=O)NC3)cc1Br sits?
A) y

Q) Identify whether the compound CN(C)C(=O)CN1C(=O)CCC12CCN(Cc1ccsc1)CC2 records INHIBITION below 40%.
A) y

Q) Strictly below 40%: is that where INHIBITION of CCOCCN1CCCC1CS(N)(=O)=O (stereo not given) sits?
A) n

Q) Given O=c1cc(CN2CC[C@@]3(O)CCCC[C@H]3C2)c2cccc3c2n1CCC3 , is recorded INHIBITION strictly lower than 40%?
A) n

Q) Hi there! Is INHIBITION for CNC(=O)Cc1ccccc1NC(=O)N[C@H]1c2ccccc2C[C@H]1O below 40%, do you know?
A) n

Q) Hello, I'm reviewing records and need to know if INHIBITION of O=C(c1ccco1)N1CCC2(CCCN(c3ncccn3)C2)C1 (stereo not given) is below 40%. Could you check?
A) n

Q) Answer whether the compound Cc1ccccc1C1(CNC(=O)NCCc2nnc3n2CCC3)CC1 has INHIBITION strictly less than 40%
A) y

Q) Does the reported INHIBITION of CCCc1ncc(C(=O)c2ccc(OC)cc2)n1C stay below 40%?
A) y

Further cases:
Q) Does the reported INHIBITION of the following compound sit strictly below 40%? O=C(c1ncc(F)cc1F)N1CCC(c2ncc[nH]2)CC1
A) y

---

Tested on: Plasmodium berghei
Experiment: Screen against P. berghei liver stage (PbLuc), transformed with Luciferase, at 10uM
Assay type: functional, HepG2
Details: tested at 10 uM
Out of some 69,000 compounds screened, about 8,600 (12%) showed an effect of 50% or more. Shown is part of a subset that was picked to be rich in strong results.
Would you mind labelling by INHIBITION? At or over 30% is Fulfilled, under is Not fulfilled.

See these solved cases before continuing.
Q) Is reported INHIBITION greater than or equal to 30% here: O=C(COCC(=O)N1CCCCCC1)NCc1cccc(Br)c1
A) Not fulfilled

Q) Determine whether measured INHIBITION meets or exceeds 30% for Cc1ccccc1OCCCNC(=O)C1(C)CC(=O)N2C=CC=CC2=N1 (configuration not stated)
A) Not fulfilled

Q) Threshold query (INHIBITION >= 30%) on COc1cc(OC)cc(C(=O)Nc2ncnc3c2CCC3)c1
A) Fulfilled

New cases:
Q) Item O=C1[C@@H]2CN(c3ncnc4[nH]ccc34)C[C@]2(C(=O)O)CN1CC1CC1 with INHIBITION of 30% or above?
A) Fulfilled

Q) Kindly determine if INHIBITION recorded for COCCCN1CCN(CCOC)C(C)C1 (configuration not stated) is above or exactly 30%.
A) Not fulfilled

---

Tested on: Plasmodium berghei
Assay: Screen against P. berghei liver stage (PbLuc), transformed with Luciferase, at 10uM
Assay type: functional, HepG2
Conditions: tested at 10 uM
About 8,600 (12%) of roughly 69,000 compounds showed an effect of 50% or more. The entries come from a sample that favours strong results as a whole.
Measured INHIBITION values are reported for all entries that follow.
Respond with the bare value in %.

# example entries with known answers
Q) Note down INHIBITION recorded for Cc1ccc(CNCCN2CCOCC2)o1
A) 5.34

Q) Look up INHIBITION of Cc1ccc(NC(=O)NCCn2cnc(C)c(C)c2=O)cc1F and report it.
A) -16.4

Q) Supply INHIBITION value. Item: CN(CC(=O)N1CCC(N(C)c2ccccc2)CC1)c1cnccn1
A) 9.9

Q) Indicate its recorded INHIBITION; the molecule in question is Cc1nc(-c2c(-c3ccccc3)ncn2CCCN2CCOCC2)c[nH]1
A) 27.6

Q) Give a short answer stating reported INHIBITION for O=C(Nc1ccc(CCN2CCC(O)CC2)cc1)C1CCCOC1 (stereo not given) .
A) 20.06

Q) Specify reported INHIBITION for the molecule shown: c1c[nH]c2nc(C3CCNC3)nc-2c1 (stereo not given)
A) 19.3

Q) Output INHIBITION of Cc1ccc(-c2c(-c3ccccc3)ncn2CCCN2CCOCC2)o1
A) 20.1

Q) Provide only the value of recorded INHIBITION for c1ccc(-c2ncn(CCCN3CCOCC3)c2-c2ccncc2)cc1
A) 55.4

Now let's try a different one.
Q) Respond only with INHIBITION recorded for Cc1noc(C)c1CN(C)C(=O)c1ccc(C(F)(F)F)nc1
A) -9.37

---

Test system: Plasmodium berghei
Assay: Screen against P. berghei liver stage (PbLuc), transformed with Luciferase, at 10uM
Type: functional, HepG2
Conditions: tested at 10 uM
The campaign covered roughly 69,000 compounds. About 8,600 (12%) showed an effect of 50% or more. The sample holds strong results, similar compounds and a random draw of the others, so the mix is not that of the screen.
The following compounds are listed with their measured INHIBITION values.
API: value field is a number in %; no unit string.

Sample records with INHIBITION:
Q) Input Cn1c(C2CC2)nc2c1CCN(Cc1nc(Cc3ccccc3)no1)C2 , output reported INHIBITION.
A) 34.7

Q) Specify reported INHIBITION for the compound shown: Cn1cnc2c1CCN(Cc1nc(Cc3ccccc3)no1)C2
A) 52.7

***
Q) Assign INHIBITION to the following record: COc1cccc(S(=O)(=O)N2C[C@H](OC)[C@]3(CCCO3)C2)c1
A) 28.5

Q) Indicate its recorded INHIBITION; the compound in question is O=C(NCc1ccnc(OCC(F)(F)F)c1)NCC1COCCO1 (stereo not drawn)
A) 4.12

Q) Let me know recorded INHIBITION for CC(=O)N1CCCC(c2ccc(CO)c(-c3c(C)noc3C)n2)C1 (stereo not drawn) , thanks.
A) 18.4

Q) Return value of INHIBITION for input CNS(=O)(=O)c1cccc(CNC(=O)c2cnn(C)c2C)c1 , no commentary.
A) 11.3

Attribution: ChEMBL document CHEMBL4513216
